Reference for the values: patent EP4374708A1

assay: physchem; conditions: water
measurement.label: solubility (mM)

>  <compound>
O=C(O)[C@@H]1C[C@@H](O)CN1 [hydroxyproline]

>  <measurement.label>
solubility

>  <reading>
198

$$$$
